Here the recorded koff is given for each entry.
test-target: LecA (Pseudomonas aeruginosa, UniProt Q05097)
Construct: made in house
Sequence (Q05097 whole entry): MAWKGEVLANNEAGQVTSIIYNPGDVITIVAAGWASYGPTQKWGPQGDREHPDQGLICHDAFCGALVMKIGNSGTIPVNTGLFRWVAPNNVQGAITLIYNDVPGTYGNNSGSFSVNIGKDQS
test-description: surface plasmon resonance (SPR) direct binding to immobilised LecA
property-label: koff (s⁻¹)

[
  {
    "input-smiles": "O=C(CCc1ccc(O[C@@H]2O[C@H](CO)[C@H](O)[C@H](O)[C@H]2O)cc1)Nc1ccc(Oc2ccc(NC(=O)CCc3ccc(O[C@@H]4O[C@H](CO)[C@H](O)[C@H](O)[C@H]4O)cc3)cc2)cc1",
    "property-label": "koff",
    "observed": 0.00349
  },
  {
    "input-smiles": "O=C(/C=C/c1ccc(O[C@@H]2O[C@H](CO)[C@H](O)[C@H](O)[C@H]2O)cc1)Nc1ccc(OCCOc2ccc(NC(=O)/C=C/c3ccc(O[C@@H]4O[C@H](CO)[C@H](O)[C@H](O)[C@H]4O)cc3)cn2)nc1",
    "property-label": "koff",
    "observed": 0.00165
  },
  {
    "input-smiles": "O=C(CCc1ccc(O[C@@H]2O[C@H](CO)[C@H](O)[C@H](O)[C@H]2O)cc1)Nc1ccc(OCOc2ccc(NC(=O)CCc3ccc(O[C@@H]4O[C@H](CO)[C@H](O)[C@H](O)[C@H]4O)cc3)cc2)cc1",
    "property-label": "koff",
    "observed": 0.00462
  }
]
